The measurements presented in this section are drawn from patent US10265286B2.

Test: Intravenous citrulline dose escalation pharmacokinetics in children undergoing congenital cardiac surgery
Type: in vivo, human
Settings: human, plasma; 50 mg/kg IV, Patients 6 and 8; read-out: 4 hour trough level
Method: The initial goal was to test the safety and pharmacokinetics of three doses of intravenous citrulline in children undergoing surgical repair of specific congenital heart defects. […] The baseline postoperative mean arterial blood pressure was calculated as the average of mean arterial blood pressure measurements collected every 5 minutes for the 30 minutes immediately preceding the administration of the postoperative dose or infusion. […]

MOLECULE	concentration at 4 hour
NC(=O)NCCCC(N)C(=O)O (stereo not shown)	40 µM

* * *

assay: Intravenous citrulline dose escalation pharmacokinetics in children undergoing congenital cardiac surgery; format: in vivo, human; conditions: human, plasma; 150 mg/kg IV, Patient 13-16; read-out: 4 hour trough

MOLECULE	concentration at 4 hour
NC(=O)NCCCC(N)C(=O)O (stereo not shown) [Citrulline, 2-amino-5-(carbamoylamino)pentanoic acid]	80 µM

* * *

assay: Perioperative oral citrulline supplementation in children undergoing congenital cardiac surgery; type: in vivo, human; settings: 5 doses of oral citrulline 1.9 grams/kg; placebo 26
PROPERTY: Plasma citrulline levels (µmol/L)

COMPOUND	PROPERTY	MEASUREMENT UNIT	NUMERIC RESULT
NC(=O)NCCCC(N)C(=O)O (stereo not shown) [Citrulline, 2-amino-5-(carbamoylamino)pentanoic acid]	Plasma citrulline levels	µmol/L	36

* * *

assay: Intravenous citrulline dose escalation pharmacokinetics in children undergoing congenital cardiac surgery; type: in vivo, human; settings: human, plasma, iv, IV bolus doses in children on CPB
PROPERTY: half-life

COMPOUND	RESULT
NC(=O)NCCCC(N)C(=O)O (stereo not shown)	~1.42 h

* * *

Assay: Intravenous citrulline dose escalation pharmacokinetics in children undergoing congenital cardiac surgery
Format: in vivo, human
Settings: human, plasma; 100 mg/kg IV, Patients 9 & 10; read-out: 4 hour trough
Description: The initial goal was to test the safety and pharmacokinetics of three doses of intravenous citrulline in children undergoing surgical repair of specific congenital heart defects. […] The baseline postoperative mean arterial blood pressure was calculated as the average of mean arterial blood pressure measurements collected every 5 minutes for the 30 minutes immediately preceding the administration of the postoperative dose or infusion. […]
PROPERTY: concentration at 4 hour

MOLECULE	PROPERTY	RESULT
NC(=O)NCCCC(N)C(=O)O (stereo not shown)	concentration at 4 hour	50 µM
